molecular target: HLA-A*33:01; assay: IEDB peptide-MHC binding, purified MHC/competitive/radioactivity; filed as Kd, often an IC50 or EC50 that approximates it; bounds were set here for any values at or beyond the usual limits of such assays; conditions: source organism: Dengue virus 1 Brazil/97-11/1997
MEASURE_NAME: pKd
Give bare numbers, as −log10 of the molar value.

The examples below pair each entry with its known result.
SEQUENCE_CHAIN	pKd
IGKMFEATAR	6.20
MLVTPSMAMR	7.46

Hi! Can you tell me pKd for each of these sequences?
1. NYLDYMTSMK
2. MIEEVMRSR

Result:
[6.76, 7.04]
